Cited source: PubChem BioAssay (NCI)

- Test system: SF-268 CNS
- TEST DETAILS: NCI tumour cell line growth inhibition, 48 h
# TGI annotations
Field format: number, assumed µM, no unit text.

Consider the worked cases shown below.
>>> val("CC(C)(C)C(=O)OCCNc1nc(-c2ccccc2)nc2ccccc12")
35.7
>>> val("CC(=O)OC(C)(C)C1O[C@@]23OC1C[C@@H](C)[C@@H]2[C@@]1(C)CC[C@@]24C[C@@]25CC[C@H](OC2OCC(O)C(O)C2O)C(C)(C)[C@@H]5CCC4[C@]1(C)[C@H]3O (stereo not given in full)")
41.3
>>> val("O=S(=O)(Nc1ccc(Cl)c(F)c1)c1ccc(-c2cnc(C3CC3)o2)cc1")
20.1

# ---- query molecule ----
Form field: TGI recorded for Cn1cc/c(=N\N=c2/ccn(C)c3ccccc23)c2ccccc21 with SF-268 CNS (enter value) 39.2

====

# TGI annotations
- Test system: OVCAR-5 ovarian
- TEST DETAILS: NCI tumour cell line growth inhibition, 48 h

Consider the worked cases shown below.
>>> val("O=C(c1cccc(F)c1F)N1CCc2c([nH]c3ccccc23)C1c1ccc2c(c1)OCO2 (stereo not given)")
"> 100 µM"
>>> val("Cn1cc/c(=N\\N=c2/ccn(C)c3ccccc23)c2ccccc21")
"30.3 µM"
>>> val("CC1(C)COP(=S)(c2ccccn2)O[C@@H]1c1ccccc1 (stereo not given in full)")
"> 100 µM"
>>> val("CN(C)CCCN1N=Nc2cccc3cccc1c23")
"> 100 µM"
>>> val("O=C(O)c1cccc(SSc2cccc(C(=O)O)c2)c1")
"> 100 µM"
>>> val("Nc1ccc(C(=O)N/C(=C\\C=C\\c2ccco2)c2nc3c4c(ccc3[nH]2)C(=O)c2ccccc2C4=O)cc1")
"> 100 µM"
>>> val("COc1ccc(C2=C(c3cn(C)c4ccccc34)C(=O)OC2)cc1OC")
"> 100 µM"
>>> val("Oc1ccc(C=NCC2CCCN3CCCCC23)cc1 (stereo not given)")
"> 59.5 µM"
>>> val("C/C=C/C1=CN2C(=O)c3cc(OC4OC(C)C(NC)C(C)(O)C4O)c(C)cc3N=C[C@@H]2C1 (stereo not given in full)")
"10.4 µM"

# ---- query molecule ----
GET /values?readout=TGI&item= CCCNC1=C(C)C(=O)C2=C(C1=O)[C@H](COC(N)=O)[C@]1(OC)[C@@H]3N[C@@H]3CN21 92.4 µM

====

- System: NCI-H226 lung
- TEST DETAILS: NCI tumour cell line growth inhibition, 48 h
RECORDED ENDPOINT: log10 of TGI (log10 of the value in µM)
A difference of one corresponds to tenfold TGI; all values are log10 with TGI in µM.

Consider the worked cases shown below.
>>> val("CC[C@H](C)[C@H]1NC(=O)[C@@H](NC(=O)[C@@H](CC(C)C)N(C)C(=O)C2CCCN2C(=O)[C@H](C)O)[C@@H](C)OC(=O)[C@@H]2Cc3ccccc3CN2C(=O)[C@@H]2CCCN2C(=O)[C@H](CC(C)C)NC(=O)[C@@H](C)C(=O)[C@H](C(C)C)OC(=O)C[C@@H]1O (stereo partly drawn)")
0.81
>>> val("COc1ccc(/C=C/C(=O)c2ccc(Cl)cc2Cl)cc1")
1.67
>>> val("CC(=O)OC(C)(C)C1O[C@@]23OC1C[C@@H](C)[C@@H]2[C@@]1(C)CC[C@@]24C[C@@]25CC[C@H](OC2OCC(O)C(O)C2O)C(C)(C)[C@@H]5CCC4[C@]1(C)[C@H]3O (stereo partly drawn)")
1.29
>>> val("C=CC1(c2ccc(-c3ccccc3)cc2)OCCO1")
1.81

GET /values?readout=log10 of TGI&item= COc1ccc2cc1Oc1ccc(cc1)CC1c3cc(OC)c(cc3CCN1C)Oc1c(OC)c(OC)cc3c1C(C2)N(C)CC3 (stereo not drawn) 1.71

GET /values?readout=log10 of TGI&item= CC(C)(C)C(=O)OCCNc1nc(-c2ccccc2)nc2ccccc12 1.83

GET /values?readout=log10 of TGI&item= O=C(NC1CCCCC1)OCc1c(COC(=O)NC2CCCCC2)c(-c2ccc(Cl)c(Cl)c2)n2c1CCC2 1.35

GET /values?readout=log10 of TGI&item= COc1ccc(Cc2c(-c3ccc(C)cc3)n[nH]c(=O)c2C2C(=O)N(c3ccccc3)N=C2c2ccccc2)cc1 (stereo not drawn) 1.91

GET /values?readout=log10 of TGI&item= Nc1nc(/C=C\c2ccc([N+](=O)[O-])s2)nc(N2CCOCC2)n1 1.66

GET /values?readout=log10 of TGI&item= CC12c3c4cccc3Oc3cc(N)cc(c31)Oc1cc(N)cc(c12)O4 1.13

====

- Tested on: SK-MEL-28 melanoma
- TEST DETAILS: NCI tumour cell line growth inhibition, 48 h; in the data active = GI50 below about 0.43 µM; inactive = the rest
Entry note: the call must match one of class 1 = active, class 0 = inactive

Previously resolved entries follow.
>>> class_name("O=C1CCC/C=C\\C[C@H]2C=CC(=O)/C2=C/C[C@H](CCc2cccc(C(F)(F)F)c2)O1")
"class 0"
>>> class_name("CCn1nc(-c2ccc(C(=O)OC)cc2)nc2c(=O)n(C)c(=O)nc1-2")
"class 0"
>>> class_name("COc1cc(-c2nn(-c3ccc(NC(=O)NCCNS(=O)(=O)c4ccc(F)cc4)cc3)cc2-c2ccncc2)ccc1Cl")
"class 0"
>>> class_name("ClC(Cl)c1nc(-c2ccccc2)n2nc(-c3ccccc3)cc2n1")
"class 0"
>>> class_name("O=C1OCC(C#Cc2ccccc2)=C1Br")
"class 0"
>>> class_name("C/C(=N\\[N+](C)(C)C)c1ccc(C)c(C)c1")
"class 0"
>>> class_name("COc1ccc2c(c1)O/C(=C\\c1ncc([N+](=O)[O-])n1C)C2=O")
"class 1"
>>> class_name("C=CC(C)c1cccc(C=O)c1O (configuration not stated)")
"class 0"
>>> class_name("COc1ccc(C(=O)c2cc(OC)c(OC)c(OC)c2)cc1OC(=O)C(Cl)(Cl)Cl")
"class 0"
>>> class_name("COC(=O)C1=C(C(=O)OC)SC(=C(Cl)C(=S)Oc2ccccc2N)S1")
"class 0"

Kindly provide the recorded test outcome for the following compound: CN1C[C@@H](c2ccc(Cl)cc2)[C@]2(NC(=S)N(c3ccc(F)c(Cl)c3)C2=O)[C@@]12C(=O)NC1C=CC(Cl)=C[C@H]12 (some centres not stated) class 0

Kindly provide the recorded test outcome for the following compound: Nc1ccccc1NC(=O)c1ccc(CNC(=O)OCc2cccnc2)cc1 class 0

Kindly provide the recorded test outcome for the following compound: O=C(Nc1ccc(F)cc1F)c1cc(F)ccc1O class 0

Kindly provide the recorded test outcome for the following compound: O=[N+]([O-])c1cccc2nc3ccccc3c(NCCN(CCO)CCO)c12 class 1

Kindly provide the recorded test outcome for the following compound: O=S(=O)(Nc1ccc(Cl)c(F)c1)c1ccc(-c2cnc(C3CC3)o2)cc1 class 0

Kindly provide the recorded test outcome for the following compound: CCCC(=O)OCC1OC(n2cnc3c(=S)nc(N)[nH]c32)C(OC(=O)CCC)C1OC(=O)CCC (configuration not stated) class 0

Kindly provide the recorded test outcome for the following compound: COc1ccc(-c2nc3c(-c4ccccc4)nc(-c4ccccc4)cn3c2-c2ccc(OC)cc2)cc1 class 0

====

- Test system: EKVX NSCLC
- TEST DETAILS: NCI tumour cell line growth inhibition, 48 h
# TGI annotations
Field format: number, assumed µM, no unit text.

GET /values?readout=TGI&item= C=CC[C@@]1(OC(C)=O)C(=O)C(=O)OC1C1COC(C)(C)O1 (some centres undefined) 33

GET /values?readout=TGI&item= COc1cccc(/C=C2\COc3ccc(O)c(O)c3C2=O)c1 3.95

====

- Test system: RXF 393 renal
- TEST DETAILS: NCI tumour cell line growth inhibition, 48 h
Classify by measured TGI: Criterion met if it is equal to or exceeds 7 µM, Criterion not met if it is smaller.

Previously resolved entries follow.
>>> class_name("Cc1n[nH]c(=S)n1/N=C/c1ccc(-c2ccc(Cl)cc2)o1")
"Criterion met"
>>> class_name("Cc1ccc(-c2nc3nc(-c4ccc(Br)cc4)nc(N4CCCNCC4)c3o2)cc1")
"Criterion met"
>>> class_name("CC(CO)CCNc1ncnc2c1ncn2CCC#N (stereo not given)")
"Criterion met"
>>> class_name("C=CCN(N=O)C(=O)NCCCC(NC(C)=O)C(=O)NCc1ccccc1 (stereo not given)")
"Criterion met"
>>> class_name("ClC(Cl)c1nc(-c2ccccc2)n2nc(-c3ccccc3)cc2n1")
"Criterion not met"
>>> class_name("O=C1CCc2c(Oc3ccc4c(c3)[C@H]3[C@@H](O4)[C@@H]3c3nc4ccc(C(F)(F)F)cc4[nH]3)ccnc2N1")
"Criterion met"

Reported TGI reaches at least 7 µM for Nc1nc(N)c2nc(CNc3ccc(C(=O)NC(CCC(=O)O)C(=O)O)cc3F)cnc2n1 (stereo not given) ? Criterion met

Reported TGI reaches at least 7 µM for COc1ccc([C@H]2CC(=O)C[C@H](c3ccc(OC)cc3OC)C23C(=O)c2ccccc2C3=O)c(OC)c1 ? Criterion met

Reported TGI reaches at least 7 µM for Nc1nc(/C=C\c2ccc([N+](=O)[O-])s2)nc(N2CCOCC2)n1 ? Criterion met

Reported TGI reaches at least 7 µM for Cc1ccc(-c2nc3cc(N4CCN(C)CC4)c(F)cc3[nH]2)cc1 ? Criterion met

Reported TGI reaches at least 7 µM for COc1ccc2c(c1)[n+](=O)c(C(=O)C/C(=N/NC(=O)c1ccccc1O)C(=O)Nc1ccc(Cl)c(C(F)(F)F)c1)c(C)n2[O-] ? Criterion met

Reported TGI reaches at least 7 µM for C#CCCCCC#Cc1ccccc1C(=O)C=[N+]=[N-] ? Criterion met
